B1: Fatty acid-binding protein, intestinal, P02693 (parent)
chain: MAFDGTWKVDRNENYEKFMEKMGINVVKRKLGAHDNLKLTITQEGNKFTVKESSNFRNIDVVFELGVDFAYSLADGTELTGTWTMEGNKLVGKFKRVDNGKELIAVREISGNELIQTYTYEGVEAKRIFKKE

Variants of: B1
Experimental Setup: Rattus norvegicus; pH 7; 25 °C; Urea; Fluorescence; NaPO4 25 mM; NaCl 75 mM; structure 1IFB; whole UniProt chain shown
Value Kind: ddG of mutation (higher = less stable) (kcal/mol)
The reply should be a number in kcal/mol, with the unit left off.

Check out these entries, answers already filled in.
# Mutant Designation, ddG of mutation (higher = less stable) / kcal/mol
measured = [
    ("F94A", 2.42),
    ("F69A", -1.38),
    ("W7Y", 0.93),
]

Now consider a different variant.
Fill in: ddG of mutation (higher = less stable) of `W83Y` is ___
-0.09
